# system.name: CD28 (Homo sapiens, UniProt P10747)
# test: Flow binding to Jurkat/IL2 reporter cells (CD28)
# Design: host or cells: Jurkat cells expressing an IL-2-luciferase reporter
# measurement.context: Table E20; Jurkats (CD28); 33.3 nM
measurement.name: CD28 MFI at 33.3 nM
// no unit, no text: just the number

INSERT INTO assay_data (molecule, measurement_name, measured) VALUES
  ('H18Y/A26E/M47L/D90G (protein) VIHVTKEVKEVATLSCGYNVSVEELEQTRIYWQKEKKMVLTMMSGDLNIWPEYKNRTIFDITNNLSIVILALRPSDEGTYECVVLKYEKGAFKREHLAEVTLSVKAD', 'CD28 MFI at 33.3 nM', 2858),
  ('H18Y/E35D/A71G/D90G (protein) VIHVTKEVKEVATLSCGYNVSVEELAQTRIYWQKDKKMVLTMMSGDMNIWPEYKNRTIFDITNNLSIVILGLRPSDEGTYECVVLKYEKGAFKREHLAEVTLSVKAD', 'CD28 MFI at 33.3 nM', 1310);

Task: I am curious: what CD28 MFI at 33.3 nM value has been reported for A26E/E35D/M47L/D90G (protein) VIHVTKEVKEVATLSCGHNVSVEELEQTRIYWQKDKKMVLTMMSGDLNIWPEYKNRTIFDITNNLSIVILALRPSDEGTYECVVLKYEKGAFKREHLAEVTLSVKAD ?
Output: 1550

Task: I am curious: what CD28 MFI at 33.3 nM value has been reported for A26E/E35D/V68M/A71G (protein) VIHVTKEVKEVATLSCGHNVSVEELEQTRIYWQKDKKMVLTMMSGDMNIWPEYKNRTIFDITNNLSIMILGLRPSDEGTYECVVLKYEKDAFKREHLAEVTLSVKAD ?
Output: 135
